Test system: biotinyl-Val-oxazolone
Assay: self-aminoacylation, catalytic enhancement (BVO) (fold over background); higher = more active; k-Seq, kA / k0A0; sequences stand for … in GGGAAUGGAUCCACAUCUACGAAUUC…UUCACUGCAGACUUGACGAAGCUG
This sample holds only a part of the variants without activity.
Please go through the items and note down their self-aminoacylation.
Answers are plain numbers.

Consider the following illustrative entries.
sequence-chain: CUACUUCAAACAAACGGACUG [Fam1A.1 aminoacylation ribozyme variant]
readout-value: 0.718
--
sequence-chain: CUACCUCAAACAAUAGGUCUG [Fam1A.1 aminoacylation ribozyme variant]
readout-value: 1
--
sequence-chain: AUUUCCCUGGUCAUCGCGUGA [Fam2.1 aminoacylation ribozyme variant]
readout-value: 10.4
--
sequence-chain: AUUCACCUAGGCCAUCGGGUU [Fam2.2 aminoacylation ribozyme variant]
readout-value: 1.31
--
sequence-chain: CUACUUCAAACUAUCGCUCUG [Fam1A.1 aminoacylation ribozyme variant]
readout-value: 0.786
--
sequence-chain: AUCCACCUAGGGCAUCGGGUG [Fam2.2 aminoacylation ribozyme variant]
readout-value: 4.02

For each listed entry, give its self-aminoacylation.
1. CUACCUCAAACAAUCGUUCUG [Fam1A.1 aminoacylation ribozyme variant]
2. CUACUUCGUACAAUCGGUCUG [Fam1A.1 aminoacylation ribozyme variant]
3. CUACUUCGAACAAGCGGUCUG [Fam1A.1 aminoacylation ribozyme variant]
4. AUUCACCUAGGACUUCGGGUG [Fam2.2 aminoacylation ribozyme variant]
5. CUACUUCAAACAUUCAGUCUG [Fam1A.1 aminoacylation ribozyme variant]
6. AUUACCCUGCGCAUCGAGUGA [Fam2.1 aminoacylation ribozyme variant]
7. AAGUUUGCUAUUAGUCUCAAG [Fam3.1 aminoacylation ribozyme variant]

[0.672, 0.685, 0.64, 2.43, 0.812, 2.56, 1.07]

For each listed entry, give its self-aminoacylation.
1. AUUCACCUAGGUCAUGGGAUG [Fam2.2 aminoacylation ribozyme variant]
2. AAGUUUGCUACUAGUCGGAAG [Fam3.1 aminoacylation ribozyme variant]
3. CCAAACUUCAAGCAAUAGGUC [Fam1B.1 aminoacylation ribozyme variant]
4. CCACACUUCAACCAAUCGGUC [Fam1B.1 aminoacylation ribozyme variant]
5. UUUACCCUGGUAAUCGAGUGA [Fam2.1 aminoacylation ribozyme variant]
6. CCACACUUCAAGACAUCGGUC [Fam1B.1 aminoacylation ribozyme variant]
7. AUUCACCGAUGUCAUCGGGUG [Fam2.2 aminoacylation ribozyme variant]
8. AUUCACCUGGGUCACCGGGUG [Fam2.2 aminoacylation ribozyme variant]

1. 0.657
2. 0.749
3. 0.602
4. 1.5
5. 3.97
6. 0.896
7. 4.63
8. 2.97

For each listed entry, give its self-aminoacylation.
1. AAGUUUGCUGAUUGUCGCAAG [Fam3.1 aminoacylation ribozyme variant]
2. AUGCACCUAGGUCAUUGGGUG [Fam2.2 aminoacylation ribozyme variant]
3. AUUACUCUAGUCAUCGAGUGA [Fam2.1 aminoacylation ribozyme variant]

[1.02, 2.16, 2.9]

###

Tested on: biotinyl-Met-oxazolone
Assay: self-aminoacylation, catalytic enhancement (BMO) (fold over background); higher = more active; k-Seq, kA / k0A0; sequences stand for … in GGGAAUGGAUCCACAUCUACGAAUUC…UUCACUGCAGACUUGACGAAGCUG
Fewer inactive variants are shown than the library holds.
Please go through the items and note down their self-aminoacylation.

Consider the following illustrative entries.
sequence-chain: AUCCACCUAGGUGAUCGGGUG [Fam2.2 aminoacylation ribozyme variant]
self-aminoacylation: 6.1
--
sequence-chain: AUUACCCUGUUGAUCGAGUGA [Fam2.1 aminoacylation ribozyme variant]
self-aminoacylation: 12.5

--- query ---
Give self-aminoacylation for AUUACCCUGGUCAUCGAGUAA [Fam2.1 aminoacylation ribozyme variant]
28.9

###

Test system: biotinyl-Leu-oxazolone
Test: self-aminoacylation, catalytic enhancement (BLO) (fold over background); higher = more active; k-Seq, kA / k0A0; sequences stand for … in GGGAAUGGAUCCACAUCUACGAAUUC…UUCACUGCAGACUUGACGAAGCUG
Variants at the floor of the assay were thinned out.
quantity-name: self-aminoacylation
Numbers only.

For each listed entry, give its self-aminoacylation.
1. AAGUUUGCCAAUAGGCGCAAG [Fam3.1 aminoacylation ribozyme variant]
2. AAGUUUGCAAAUAGUCGCAAG [Fam3.1 aminoacylation ribozyme variant]
3. AUUCCCCUAGGUCAUCGGGUG [Fam2.2 aminoacylation ribozyme variant]

1. 1.15
2. 0.665
3. 32.9

For each listed entry, give its self-aminoacylation.
1. CUACUUCAAACAAUUGGUGUG [Fam1A.1 aminoacylation ribozyme variant]
2. CUAAUUCAAAGAAUCGGUCUG [Fam1A.1 aminoacylation ribozyme variant]
3. AUUCAACUAGGUCAUCCGGUG [Fam2.2 aminoacylation ribozyme variant]
4. AUUCCCCUGGUCUUCGAGUGA [Fam2.1 aminoacylation ribozyme variant]
5. AUUAACCUGGUCAUCGAGUGG [Fam2.1 aminoacylation ribozyme variant]
6. CUACUUCGAACGAUCGGUCUG [Fam1A.1 aminoacylation ribozyme variant]
7. CUACUUGAAACAAUCGGGCUG [Fam1A.1 aminoacylation ribozyme variant]

[1.62, 0.806, 8.12, 9.91, 2.11, 1.06, 1.83]

###

System: biotinyl-Met-oxazolone
Experiment: self-aminoacylation, catalytic enhancement (BMO) (fold over background); higher = more active; k-Seq, kA / k0A0; sequences stand for … in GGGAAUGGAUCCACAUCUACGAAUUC…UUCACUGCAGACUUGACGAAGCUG
This sample holds only a part of the variants without activity.
Decision: self-aminoacylation >= 4 yields TRUE, all other cases yield FALSE.

Use these answered entries as a reference point.
sequence-chain: AUUUCCCUGGUUAUCGAGUGA [Fam2.1 aminoacylation ribozyme variant]
qualitative-label: TRUE

sequence-chain: GCACACUUCAAGCAAUCGGGC [Fam1B.1 aminoacylation ribozyme variant]
qualitative-label: FALSE

sequence-chain: AACGUUGCUAAUAGUCGCAAG [Fam3.1 aminoacylation ribozyme variant]
qualitative-label: FALSE

Entry ACUACCCUGGUCAGCGAGUGA [Fam2.1 aminoacylation ribozyme variant] : is its self-aminoacylation no less than 4?
TRUE

Entry AAGUUUCCUAAUAGUCGAAAG [Fam3.1 aminoacylation ribozyme variant] : is its self-aminoacylation no less than 4?
FALSE

Entry AUUCACCUAGGUAAUCAGGUG [Fam2.2 aminoacylation ribozyme variant] : is its self-aminoacylation no less than 4?
FALSE

Entry CCACAGUUCAAGCAAUCAGUC [Fam1B.1 aminoacylation ribozyme variant] : is its self-aminoacylation no less than 4?
FALSE

Entry CUUCUUCAAACCAUCGGUCUG [Fam1A.1 aminoacylation ribozyme variant] : is its self-aminoacylation no less than 4?
FALSE

Entry AUUACACUGGUCAUCGAGCGA [Fam2.1 aminoacylation ribozyme variant] : is its self-aminoacylation no less than 4?
FALSE

Entry CUACUUCAAACCAUCGGCCUG [Fam1A.1 aminoacylation ribozyme variant] : is its self-aminoacylation no less than 4?
FALSE

Entry ACGUGUGCUAAUAGUCGCAAG [Fam3.1 aminoacylation ribozyme variant] : is its self-aminoacylation no less than 4?
FALSE

Entry AUUUACCUAGGUCAUCGGGUG [Fam2.2 aminoacylation ribozyme variant] : is its self-aminoacylation no less than 4?
TRUE

Entry AUUACCCUGGCCAUCGAGUGA [Fam2.1 aminoacylation ribozyme variant] : is its self-aminoacylation no less than 4?
FALSE

Entry AUACUUCAAUCAAUCGGUCUG [Fam1A.1 aminoacylation ribozyme variant] : is its self-aminoacylation no less than 4?
FALSE

Entry AUCACCCUGAUCAUCGAGUGA [Fam2.1 aminoacylation ribozyme variant] : is its self-aminoacylation no less than 4?
TRUE

Entry CCACACUUCAAUCAAACGGUC [Fam1B.1 aminoacylation ribozyme variant] : is its self-aminoacylation no less than 4?
FALSE

Entry CUUACCCUGGUCAUUGAGUGA [Fam2.1 aminoacylation ribozyme variant] : is its self-aminoacylation no less than 4?
TRUE

Entry AUUCACCUACCUCAUCGGGUG [Fam2.2 aminoacylation ribozyme variant] : is its self-aminoacylation no less than 4?
FALSE

Entry AUGACCCUGGUCAUCGAGGGA [Fam2.1 aminoacylation ribozyme variant] : is its self-aminoacylation no less than 4?
FALSE

Entry UUCACCCUGGUCAUCGAGUGA [Fam2.1 aminoacylation ribozyme variant] : is its self-aminoacylation no less than 4?
TRUE

Entry CUUCACCUAGGUCAUCCGGUG [Fam2.2 aminoacylation ribozyme variant] : is its self-aminoacylation no less than 4?
TRUE

Entry AUUCACCUAGGUCAUCCGGUA [Fam2.2 aminoacylation ribozyme variant] : is its self-aminoacylation no less than 4?
FALSE

Every entry's value here was drawn from the supplement of paper PMC9233669.
